This collection of values is drawn from ChEMBL document CHEMBL3988442.

Below is a list of entries, each paired with its recorded Percent Effect value.
tested on: Mycobacterium tuberculosis; test: Cornell - Phenotypic assay to identify agents that inhibit growth of Mycobacterium tuberculosis; type: functional; set-up: scale not given: direction of the effect not stated beside the values; conditions: 10 mM as filed; unlikely as a test dose
Among all 53,000 compounds or so, about 900 (1.7%) showed an effect of 50% or more. This excerpt belongs to a sample that is enriched for strong results.
Value expressed in %; do not type the unit.

O=C(O)[C@H]1CN(Cc2ccccc2)C[C@@H]1C(=O)c1ccccc1 :: 51.09
Cc1nn(C)c(C)c1CN1CCCC1c1nccc(CN(C)C)n1 (stereo not drawn) :: -90.49
Cc1nn(C)c2nc(-c3ccccn3)nc(NCCCOC(C)C)c12 :: 64.07
O=C(NC1CC1)[C@H]1CN(Cc2ccccc2)C[C@@H]1C(=O)c1ccccc1 :: 30.86
COc1ccccc1C1CC(=O)Nc2nc(N3CCCCC3)sc21 (stereo not drawn) :: 102.8
CCOCC(=O)Nc1nccn1Cc1ccccc1Cl :: 48.83

Shift focus to the following entry.
Record COc1cccc(C2CC(=O)Nc3nc(N4CCCCC4)sc32)c1OC (stereo not drawn) . Reported Percent Effect: 70.71

----------
system: Mycobacterium tuberculosis; assay: Cornell - Phenotypic assay to identify agents that inhibit growth of Mycobacterium tuberculosis; assay type: functional; set-up: scale not given: direction of the effect not stated beside the values; conditions: 10 mM as filed; unlikely as a test dose
Among all 53,000 compounds or so, about 900 (1.7%) showed an effect of 50% or more. This is one part of a sample in which strong results are shown more often than they occur.
Below is a list of entries, each paired with its recorded Percent Effect value.
Value expressed in %; do not type the unit.

Below are worked cases with known answers.
CCC(C)NC(=O)Nc1cccc(OCCCC#N)c1 (stereo unspecified) :: -0.4736
COc1ncc(-c2cc(NC3CCCC3)nc3[nH]ccc23)c(OC)n1 :: 89.73
Cc1cc(-c2ccc(=O)n(CCNC(=O)C3CCC3)n2)c(C)o1 :: -20.09
COC[C@@]12CCO[C@@H]1CCN(C(=O)Cc1ccccc1C)C2 :: 7.914
O=C(c1cc(F)ccc1O)N1CCN(C2CCOCC2)CC1 :: 23.2

Record "NC(=O)c1cnc(NC2CCN(c3ccccc3)CC2)c(Cl)c1" . Reported Percent Effect: 48.08

Record "NC(=O)c1cnc(NC2CCN(c3ccccn3)CC2)c(Cl)c1" . Reported Percent Effect: 18.4

Record "O=C(O)C(F)(F)F.O=C1N(CC2CC2)CCC12CCN(Cc1ccoc1)CC2" . Reported Percent Effect: -1.631

Record "COc1nccnc1-c1cc(NC2CCCC2)nc2[nH]ccc12" . Reported Percent Effect: 101.6

Record NC(=O)c1cnc(NC2CCC(c3ccccc3)CC2)c(Cl)c1 (stereo unspecified) . Reported Percent Effect: 57.03

Record Cc1cnn(CC2CN(CC(=O)N(C)Cc3cnn(C)c3)CCO2)c1 (stereo unspecified) . Reported Percent Effect: -28.01

Record "Cc1cc(-c2ccc(=O)n(CCNC(=O)C3CC3)n2)c(C)o1" . Reported Percent Effect: 55.53

Record "CCc1cccc(NC(=O)CNc2ccccc2OCCC(=O)OC)c1" . Reported Percent Effect: 45.3

Record "COCc1cc(CNCc2c(C)n(CC(C)C)c3ccccc23)n[nH]1" . Reported Percent Effect: 48.01

Record "Fc1cccc2[nH]c(CN3CCn4c(nnc4C4CC4)C3)nc12" . Reported Percent Effect: -6.1

Record "CC(C)C[C@H](N)COc1cccc(F)c1Oc1cccc(Cl)c1" . Reported Percent Effect: 106.7

Record "COc1ccc2cc(NC(=O)CCNc3ncccn3)cnc2c1" . Reported Percent Effect: -7.502

Record "Nc1ccnc(-c2cc(NC3CCNCC3)nc3[nH]ccc23)c1" . Reported Percent Effect: 11.63

Record "Clc1ccc(OCCNC2(c3ccc(Br)cc3)CCOCC2)cc1" . Reported Percent Effect: 68.56

Record CCOc1c(Br)cc(C2C3=C(COC3=O)Nc3[nH]nc(C)c32)cc1OC (stereo unspecified) . Reported Percent Effect: 33.99

Record "Cc1ccc(-c2nc(CCNC(=O)NCC(C)(C)C(N)=O)co2)cc1" . Reported Percent Effect: -1.516

Record "CCOCCNC1(c2ccc(Cl)cc2)CCOCC1" . Reported Percent Effect: -7.005

----------
tested on: Mycobacterium tuberculosis; experiment: Cornell - Phenotypic assay to identify agents that inhibit growth of Mycobacterium tuberculosis; type: functional; design: scale not given: direction of the effect not stated beside the values; conditions: 10 mM as filed; unlikely as a test dose
Screen size: about 53,000 compounds; about 900 (1.7%) showed an effect of 50% or more. Many of the other results were omitted from the sample, so strong results are more common in it than they were.
Below is a list of entries, each paired with its recorded Percent Effect value.
Value expressed in %; do not type the unit.

CCS(=O)(=O)N1CC(c2nc(-c3ccsc3)no2)C1 :: -31.96
CCc1ncc2c(n1)CN(Cc1nc(-c3ccco3)oc1C)CC2 :: -14.23
Cc1cc(N2CCOCC2)ccc1NC(C)c1nc(C(C)(C)C)no1 (stereo not given) :: 76.4
CC(C)(C)c1csc(CCNC(=O)C(c2ccccc2)n2cnnn2)n1 (stereo not given) :: 11.39
CNC(=O)CNC(=O)c1ccc(-c2scnc2C)nc1 :: 51.37
COc1cc(N2C[C@H]3OCC[C@H]3[C@H](C(=O)N3CCCC3)C2)ncn1 :: -33.02

Record "CCc1ccc(S(=O)(=O)Nc2cc(OC)c(OC)cc2C(=O)O)s1" . Reported Percent Effect: 16.65

Record CC(Oc1cc(Cl)cc(Cl)c1)C(=O)NCCOCC(N)=O (stereo not given) . Reported Percent Effect: -19.42

Record "O=C(c1cc(C2CC2)[nH]n1)N1CCN(Cc2ccncc2)CC1" . Reported Percent Effect: 8.467

Record "O=C(c1cc(C2CC2)[nH]n1)N1CCN(Cc2ccc3c(c2)OCO3)CC1" . Reported Percent Effect: 83.19

----------
test system: Mycobacterium tuberculosis; assay: Cornell - Phenotypic assay to identify agents that inhibit growth of Mycobacterium tuberculosis; assay type: functional; parameters: scale not given: direction of the effect not stated beside the values; details: 10 mM as filed; unlikely as a test dose
The campaign covered roughly 53,000 compounds. About 900 (1.7%) showed an effect of 50% or more. The sample holds strong results, similar compounds and a random draw of the others, so the mix is not that of the screen.
Label scheme for Percent Effect: zone 1: < 10%; zone 2: ≥ 10% and < 50%; zone 3: ≥ 50%

Cc1nc(N2CCCC2)nc2c1CCN(Cc1ccoc1)CC2.O=C(O)C(F)(F)F :: zone 3

## Task Band for the recorded Percent Effect of O=C(CC1=CSC2=NCCCN12)N1CCCCCC1c1ccco1 (stereo unspecified) ?
## Result zone 1

## Task Band for the recorded Percent Effect of "c1ccc(Cc2nc(CNCCn3cccn3)cs2)cc1" ?
## Result zone 3

## Task Band for the recorded Percent Effect of "Fc1ccc(NCc2ncc[nH]2)cc1Br" ?
## Result zone 3

## Task Band for the recorded Percent Effect of "CC(C)Oc1ncnc2c1CCN(Cc1ccco1)CC2.O=C(O)C(F)(F)F" ?
## Result zone 2

----------
system: Mycobacterium tuberculosis; assay: Cornell - Phenotypic assay to identify agents that inhibit growth of Mycobacterium tuberculosis; format: functional; set-up: scale not given: direction of the effect not stated beside the values; settings: 10 mM as filed; unlikely as a test dose
The campaign covered roughly 53,000 compounds. About 900 (1.7%) showed an effect of 50% or more. The sample holds strong results, similar compounds and a random draw of the others, so the mix is not that of the screen.
Below is a list of entries, each paired with its recorded Percent Effect value.
Value expressed in %; do not type the unit.

Below are worked cases with known answers.
Cc1nc(C)n(CC2CCCN(CCC(=O)Nc3cc(C)on3)C2)n1 (centres undefined) :: -4.464
CC(Nc1nc(-c2ccncc2)nc2c1CCNC2)c1ccccc1 (centres undefined) :: 16.91
CC(C)=CCN1C[C@@H]2CN(C(=O)c3ccc(CO)cc3)C[C@]2(C(=O)O)C1 :: 22.99

Shift focus to the following entry.
Record CC(Nc1nc(-c2ccccc2)nc2c1CCNCC2)c1nccs1 (centres undefined) . Reported Percent Effect: 28.69

----------
test system: Mycobacterium tuberculosis; test: Cornell - Phenotypic assay to identify agents that inhibit growth of Mycobacterium tuberculosis; type: functional; parameters: scale not given: direction of the effect not stated beside the values; details: 10 mM as filed; unlikely as a test dose
In all, about 53,000 compounds went through this assay and about 900 (1.7%) showed an effect of 50% or more. The entries come from a sample that favours strong results as a whole.
Outcome: Yes for Percent Effect of at least 30%; No for anything lower.

Worked set:
CNc1ncc(CN(C)c2nccc(CCC(F)(F)F)n2)cn1 :: Yes
Cc1[nH]/c(=N\C(=O)c2csc(NC3CC3)n2)sc1C :: Yes
CC(C)(O)C1CCN(C(=O)Nc2nc(-c3ccccc3)ns2)CC1 :: Yes
Cc1noc(COCC(=O)Nc2ccc(Br)c(C)n2)n1 :: No
Cc1noc(NC(=O)c2ccc(OC(F)(F)F)cc2)n1 :: Yes

## Task Record Cc1nc(C)n(CC2CCCCN2Cc2cn3ccccc3n2)n1 (centres undefined) ; criterion: Percent Effect no lower than 30%. Met?
## Result No

## Task Record CC(C)(O)C1CCCN(C(=O)Nc2nc(-c3ccccc3)ns2)C1 (centres undefined) ; criterion: Percent Effect no lower than 30%. Met?
## Result No

## Task Record CNc1cc(N2CCCC2CNCc2ccc(C)o2)ncn1 (centres undefined) ; criterion: Percent Effect no lower than 30%. Met?
## Result No

## Task Record "Cc1noc(NC(=O)c2cccc(Br)c2)n1" ; criterion: Percent Effect no lower than 30%. Met?
## Result Yes

## Task Record "COc1ccc(N2CCC(NC(=O)c3sccc3C)CC2)cc1" ; criterion: Percent Effect no lower than 30%. Met?
## Result No

## Task Record COc1ccc(C2CN(c3ncccn3)CCN2C(C)=O)cc1 (centres undefined) ; criterion: Percent Effect no lower than 30%. Met?
## Result No

## Task Record CCC(=O)N1CCCCC1c1nc(CN(C)C(C)=O)cc(N(C)C)n1 (centres undefined) ; criterion: Percent Effect no lower than 30%. Met?
## Result Yes

## Task Record CCC1c2ccc(C)n2CCN1C(=O)Cn1cnc2sc(C)cc2c1=O (centres undefined) ; criterion: Percent Effect no lower than 30%. Met?
## Result No

## Task Record "O=C(c1cnn2c(-c3ccco3)ccnc12)N1CCCCCC1" ; criterion: Percent Effect no lower than 30%. Met?
## Result Yes

## Task Record "O=C(NCCc1cccs1)C1(N2CCCCC2)Cc2ccccc2C1" ; criterion: Percent Effect no lower than 30%. Met?
## Result No
